Recorded values, source ChEMBL document CHEMBL1139303.

test system: Candida tropicalis; assay: Antifungal activity against Candida tropicalis DSM 1346 at 50 ug after 24 hrs by agar diffusion method; type: functional
Calls of active or inactive are those of the source. The rule behind the calls is not given here.
Observation Type: Activity

Some entries whose results are on file:
c1ccc(/N=c2\ssnc2-c2cccs2)cc1 ... inactive
O=c1ssnc1-c1ccccc1 ... inactive
c1ccc(/N=c2\ssnc2-c2cc3ccccc3o2)cc1 ... inactive
c1ccc(/N=c2\ssnc2-c2ccccc2)cc1 ... inactive
Fc1ccc(-c2nssc2=S)cc1 ... inactive

Now look at this entry.
Requested field: Activity. Item: `S=c1ssnc1-c1cccs1`
inactive

* * *

Reported GI50 by item:
system: MCF7; test: Antiproliferative activity against human MCF7 cells after 72 hrs by MTT assay; assay type: functional; conditions: MCF7, 72 h

c1ccc(/N=c2\ssnc2-c2cccs2)cc1 ... > 10 µM
c1ccc(/N=c2\ssnc2-c2ccccc2)cc1 ... 10 µM
S=c1ssnc1-c1ccccn1 ... > 10 µM
S=c1ssnc1-c1cccs1 ... > 10 µM
Cc1nssc1=S ... > 10 µM

Requested field: GI50. Item: `CCOC(=O)c1nssc1=S`
> 10 µM

Same lookup for `CCOC(=O)c1nss/c1=N\c1ccccc1` , please.
> 10 µM

Same lookup for `c1ccc(/N=c2\ssnc2-c2cc3ccccc3o2)cc1` , please.
10 µM

Same lookup for `Fc1ccc(-c2nss/c2=N\c2ccccc2)cc1` , please.
10 µM

Same lookup for `Fc1ccc(-c2nssc2=S)cc1` , please.
> 10 µM

Same lookup for `O=c1ssnc1-c1ccccc1` , please.
> 10 µM

* * *

Reported MFC by item:
system: Nakaseomyces glabratus; test: Antifungal activity against Candida glabrata DSM6425 after 24 hrs by broth macrodilution method; type: functional; conditions: DSM6425, 24 h
Form entry: value (µg/mL) — number only.

S=c1ssnc1-c1ccccn1 ... 48
C[C@@H]1[C@H](O)[C@@H](C)/C=C/C=C/C=C/C=C/C=C/C=C/C=C/[C@H](O[C@@H]2O[C@H](C)[C@@H](O)[C@H](N)[C@@H]2O)C[C@@H]2O[C@](O)(C[C@@H](O)C[C@@H](O)[C@H](O)CC[C@@H](O)C[C@@H](O)CC(=O)O[C@H]1C)C[C@H](O)[C@H]2C(=O)O ... 2
CCOC(=O)c1nss/c1=N\c1ccccc1 ... 48

Now look at this entry.
Requested field: MFC. Item: `CCOC(=O)c1nssc1=S`
48

* * *

system: Candida albicans; test: Antifungal activity against Candida albicans ATCC 10231 after 24 hrs by broth macrodilution method; format: functional; conditions: ATCC 10231, 24 h
Observation Type: MFC

CCOC(=O)c1nssc1=S ... > 48 µg/mL
S=c1ssnc1-c1ccccn1 ... > 48 µg/mL
OC(Cn1cncn1)(Cn1cncn1)c1ccc(F)cc1F [FLUCONAZOLE] ... > 128 µg/mL
C[C@@H]1[C@H](O)[C@@H](C)/C=C/C=C/C=C/C=C/C=C/C=C/C=C/[C@H](O[C@@H]2O[C@H](C)[C@@H](O)[C@H](N)[C@@H]2O)C[C@@H]2O[C@](O)(C[C@@H](O)C[C@@H](O)[C@H](O)CC[C@@H](O)C[C@@H](O)CC(=O)O[C@H]1C)C[C@H](O)[C@H]2C(=O)O [AMPHOTERICIN B] ... 0.5 µg/mL

Now look at this entry.
Requested field: MFC. Item: `CCOC(=O)c1nss/c1=N\c1ccccc1`
> 48 µg/mL

* * *

tested on: Staphylococcus aureus; assay: Antibacterial activity against Staphylococcus aureus ATCC 25923 at 50 ug after 24 hrs by agar diffusion method; type: functional; details: Staphylococcus aureus, ATCC 25923, 24 h; read-out: IZ
Observation Type: zone of inhibition at 50 µg/disc (mm)
Form entry: value (mm) — number only.

Some entries whose results are on file:
S=c1ssnc1-c1ccccc1 ... 12
c1ccc(/N=c2\ssnc2-c2ccccc2)cc1 ... 6
O=[N+]([O-])c1ccc(-c2nssc2=S)cc1 ... 6
S=c1ssnc1-c1ccccn1 ... 12
Cc1nssc1=S ... 6

Now look at this entry.
Requested field: zone of inhibition at 50 µg/disc. Item: `CCOC(=O)c1nss/c1=N\c1ccccc1`
6

* * *

Reported MIC by item:
system: Candida tropicalis; assay: Antifungal activity against Candida tropicalis DSM 1346 after 24 hrs by broth macrodilution method; type: functional; conditions: DSM 1346, 24 h
Form entry: value (µg/mL) — number only.

Some entries whose results are on file:
S=c1ssnc1-c1ccccn1 ... 32
OC(Cn1cncn1)(Cn1cncn1)c1ccc(F)cc1F ... 4

What reported MIC corresponds to `CCOC(=O)c1nssc1=S` on Candida tropicalis?
48

Same lookup for `CCOC(=O)c1nss/c1=N\c1ccccc1` , please.
32

Same lookup for `C[C@@H]1[C@H](O)[C@@H](C)/C=C/C=C/C=C/C=C/C=C/C=C/C=C/[C@H](O[C@@H]2O[C@H](C)[C@@H](O)[C@H](N)[C@@H]2O)C[C@@H]2O[C@](O)(C[C@@H](O)C[C@@H](O)[C@H](O)CC[C@@H](O)C[C@@H](O)CC(=O)O[C@H]1C)C[C@H](O)[C@H]2C(=O)O` , please.
1

* * *

system: Bacillus cereus; test: Antibacterial activity against Bacillus cereus after 24 hrs by broth macrodilution method; assay type: functional
Observation Type: MIC

Some entries whose results are on file:
CCOC(=O)c1nss/c1=N\c1ccccc1 ... 48 µg/mL
S=c1ssnc1-c1ccccn1 ... > 48 µg/mL
CCOC(=O)c1nssc1=S ... > 48 µg/mL

Requested field: MIC. Item: `S=c1ssnc1-c1ccccc1`
> 48 µg/mL

* * *

tested on: Candida albicans; test: Antifungal activity against Candida albicans ATCC 10231 after 24 hrs by broth macrodilution method; assay type: functional; conditions: ATCC 10231, 24 h
Reported MIC by item:
Form entry: value (µg/mL) — number only.

Some entries whose results are on file:
CCOC(=O)c1nssc1=S ... 48
OC(Cn1cncn1)(Cn1cncn1)c1ccc(F)cc1F [FLUCONAZOLE] ... 2
S=c1ssnc1-c1ccccn1 ... 32
C[C@@H]1[C@H](O)[C@@H](C)/C=C/C=C/C=C/C=C/C=C/C=C/C=C/[C@H](O[C@@H]2O[C@H](C)[C@@H](O)[C@H](N)[C@@H]2O)C[C@@H]2O[C@](O)(C[C@@H](O)C[C@@H](O)[C@H](O)CC[C@@H](O)C[C@@H](O)CC(=O)O[C@H]1C)C[C@H](O)[C@H]2C(=O)O [AMPHOTERICIN B] ... 0.25

Now look at this entry.
Requested field: MIC. Item: `CCOC(=O)c1nss/c1=N\c1ccccc1`
48

* * *

system: MCF7; assay: Antiproliferative activity against human MCF7 cells after 72 hrs by MTT assay; format: functional; conditions: MCF7, 72 h
Observation Type: GI50

Some entries whose results are on file:
S=c1ssnc1-c1ccccc1 ... > 10 µM
S=c1ssnc1-c1cc2ccccc2o1 ... > 10 µM
O=[N+]([O-])c1ccc(-c2nssc2=S)cc1 ... > 10 µM
Cc1nss/c1=N\c1ccccc1 ... > 10 µM

Now look at this entry.
Requested field: GI50. Item: `O=[N+]([O-])c1ccc(-c2nss/c2=N\c2ccccc2)cc1`
10 µM
